- METHOD SUMMARY: Inhibition of ATX (unknown origin)-mediated cell migration in human MDA-MB-231 cells assessed as reduction in cell motility after 3 hrs by Diff-Quick staining based microplate reader analysis
PROPERTY MEASURED: IC50 (nM)
Lab book: enter the figure in nM, no units written.

Request: Which IC50 is reported for this molecule? CCCCCCn1c(C)cc(=O)n2cc(-c3ccc(Cl)cc3)nc12
Response: 30
